# experimental protocol: Metabolic stability in rat liver microsomes at 4 uM after 40 mins by LC/MS/MS analysis
# Type: ADME, Microsome
# condition: liver microsomes, read-out: Stability
assay readout: remaining at 40 min, 4 µM (%)

A = Cc1cc2c(C(=O)NC[C@H](C)c3ccccc3)c(O)c(O)cc2c(O)c1-c1c(C)cc2c(C(=O)NC[C@H](C)c3ccccc3)c(O)c(O)cc2c1O
B = Cc1cc2c(C(=O)NC[C@@H](C)c3ccccc3)c(O)c(O)cc2c(O)c1-c1c(C)cc2c(C(=O)NC[C@@H](C)c3ccccc3)c(O)c(O)cc2c1O
Input line: Between these two entries, A and B , state which has the higher remaining at 40 min, 4 µM. Indicate which entry you chose by stating its label.
Output line: B

* * *

# test target: Bcl-2-like protein 1 (Homo sapiens, UniProt Q07817)
# Sequence (Q07817 whole entry): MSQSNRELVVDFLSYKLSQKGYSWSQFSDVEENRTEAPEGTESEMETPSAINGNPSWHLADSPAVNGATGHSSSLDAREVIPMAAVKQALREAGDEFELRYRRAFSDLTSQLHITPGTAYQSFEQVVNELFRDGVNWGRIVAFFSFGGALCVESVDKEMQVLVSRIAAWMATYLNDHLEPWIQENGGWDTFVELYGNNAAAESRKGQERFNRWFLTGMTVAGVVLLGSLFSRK
assay readout: pIC50
In textbook form, pIC50 equals minus log to base ten of the concentration in mol/L.

Looking up Cc1cc2c(C(C)C)c(O)c(O)c(C=O)c2c(O)c1-c1c(C)cc2c(C(C)C)c(O)c(O)c(C=O)c2c1O , I see its pIC50 listed as 6.27
